B1: MYBL2 (parent)
chain: VKKSCWTEEEDRIICEAHKVLGNR

variants of: B1; assay: protein stability index of a GFP-peptide fusion (GPS, HEK-293T) (PSI 1-6); higher = more stable; conditions: c terminus: a fixed tail appended;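 further: lentivirally expressed fusions sorted by FACS into six bins by GFP to DsRed ratio, PSI derived from sequencing read proportions per bin multiplied by bin number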
Here the recorded protein stability index is given for each entry.
Give a plain numeric answer without units written out.

INSERT INTO measurements (mutationcode, quantitativeresult) VALUES
  ('N23I', 2.63),
  ('E9V', 2.45),
  ('L21A', 3.42),
  ('N23Y', 3.01),
  ('C15V', 3.85),
  ('E16N', 3.15);

Q: Fill in the blank: the reported protein stability index of R12W is ____.
Result: 2.22

Q: Fill in the blank: the reported protein stability index of R24Q is ____.
Result: 4.15

Q: Fill in the blank: the reported protein stability index of N23C is ____.
Result: 3.23

Q: Fill in the blank: the reported protein stability index of E16P is ____.
Result: 3.54

Q: Fill in the blank: the reported protein stability index of G22E is ____.
Result: 3.96

Q: Fill in the blank: the reported protein stability index of G22R is ____.
Result: 2.99

Q: Fill in the blank: the reported protein stability index of I13R is ____.
Result: 3.19

Q: Fill in the blank: the reported protein stability index of R12N is ____.
Result: 3.7

Q: Fill in the blank: the reported protein stability index of H18P is ____.
Result: 4

Q: Fill in the blank: the reported protein stability index of A17P is ____.
Result: 3.12

Q: Fill in the blank: the reported protein stability index of H18K is ____.
Result: 3.73

Q: Fill in the blank: the reported protein stability index of L21F is ____.
Result: 2.94

Q: Fill in the blank: the reported protein stability index of E9Q is ____.
Result: 3.45

Q: Fill in the blank: the reported protein stability index of G22Q is ____.
Result: 1.97

Q: Fill in the blank: the reported protein stability index of N23Q is ____.
Result: 2.95

Q: Fill in the blank: the reported protein stability index of E10A is ____.
Result: 2.38
